protocol.description: in vitro
test.context: human, Caco-2
reported.metric: Papp A→B (×10⁻⁶ cm/s)

INSERT INTO results (compound, reported_metric, output_unit, reported_measurement) VALUES
  ('Cc1ccc(N)cc1C(=O)N[C@H](C)c1cccc2ccccc12 [GRL0617, reference compound]', 'Papp A→B', '×10⁻⁶ cm/s', 12.4),
  ('C[C@H]1O[C@@H](O[C@H]2[C@@H](O)C[C@H](O[C@H]3[C@@H](O)C[C@H](O[C@H]4CC[C@@]5(C)[C@H](CC[C@@H]6[C@@H]5C[C@@H](O)[C@]5(C)[C@@H](C7=CC(=O)OC7)CC[C@]65O)C4)O[C@@H]3C)O[C@@H]2C)C[C@H](O)[C@@H]1O [Digoxin]', 'Papp A→B', '×10⁻⁶ cm/s', 0.4),
  ('Cc1ccc(NC2CNC2)cc1C(=O)N[C@H](C)c1cccc(-c2ccc(CN3CCCC3)s2)c1 [XR8-24]', 'Papp A→B', '×10⁻⁶ cm/s', 0.14),
  ('CC(C)NCC(O)COc1cccc2ccccc12 (centres unmarked) [Propranolol]', 'Papp A→B', '×10⁻⁶ cm/s', 17.9),
  ('Cc1ccc(NC2CNC2)cc1C(=O)N[C@H](C)c1cccc(-c2ccc(CNC3CCCC3)s2)c1 [XR8-23]', 'Papp A→B', '×10⁻⁶ cm/s', 0.16);
